Each entry below carries its recorded Kd.
Molecular target: T1, biotinylated GITR (human, UniProt Q9Y5U5 26-161, limits assumed, biotinylated (sites not given))
T1 construct: also called GITR-bio; Biotin-GITR
T1 sequence: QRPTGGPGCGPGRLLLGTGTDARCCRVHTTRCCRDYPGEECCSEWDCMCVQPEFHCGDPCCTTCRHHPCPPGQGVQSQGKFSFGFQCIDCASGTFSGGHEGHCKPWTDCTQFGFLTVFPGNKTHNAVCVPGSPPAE
Experiment: BLI (Octet), biotin-GITR on streptavidin tips, antibody supernatant
MEASUREMENT LABEL: Kd (nM)

# BINDER, RECORDED NUMBER
rows = [
    ("germline variant antibody 96 (H1917G06 / K1917G06) (antibody, V domains shown, IGHG1/IGKC expression vectors; measured from CHO culture supernatant; also called Antibody ID 96) VH: QVQLVQSGAEVKKPGASVKVSCKGSGYTFTEYAMYWVRQAPGQGMEWMGVIRTYSGGLTYNQKFRDRVTMTVDTSISTAYMELSRLRSDDTAVYYCAKSGTVRGFAYWGQGTLVTVSS VL: DIVMTQSPDSLAVSLGERATINCKSSQSLLNSSNQKNYLSWYHQKPGQPPKLLIYWASTRESGVPDRFSGSGSGTDFTLTISSLQAEDVAVYHCQNDYSYPYTFGQGTKLEIK", 1.09),
    ("germline variant antibody 43 (H1916E03 / K1916E03) (antibody, V domains shown, IGHG1/IGKC expression vectors; measured from CHO culture supernatant; also called Antibody ID 43) VH: QVQLVQSGAEVKKPGASVKVSCKGSGYTFTEYAMYWVRQAPGQGMEWIGLIRTFSGDVSYNQKFKGRATMTVDKSISTAYMELSRLRSDDTAVYYCAKSGTVRGFAYWGQGTLVTVSS VL: DIVMTQSPDSLAVSLGERATINCKSSQSLLNSGNQKNYLTWYQQKPGQPPKMLIYWASTRESGVPDRFTGSGSGTDFTLTISSVQAEDVAVYHCQNDYSYPYTFGQGTKLEIK", 1.28),
    ("germline variant antibody 85 (H1917E02 / K1917E02) (antibody, V domains shown, IGHG1/IGKC expression vectors; measured from CHO culture supernatant; also called Antibody ID 85) VH: QVQLVQSGAEVKKPGASVKVSCKASGYTFTEYAMYWVRQAPGQGLEWMGVIRTYSGGVTYNQKFKDRATMTVDTSISTAYMELSRLRSDDTAVYYCAKSGTVRGFAYWGQGTLVTVSS VL: DIVMTQSPDSLAVSLGERATINCKSSQSLLNSSNQKNYLSWYHQKPGQPPKLLIYWASTRESGVPDRFSGSGSGTDFTLTISSVQAEDVAVYYCQNDYSYPYTFGQGTKLEIK", 1.28),
]
